This collection of values is drawn from ChEMBL document CHEMBL1201862.

Reported GI50 values for the following compounds.
test system: HOP-62; experiment: NCI tumour cell line growth inhibition, 48 h
The source made the active and inactive calls. No stated cut-off is given here; in the data, active = GI50 up to about 1.1 µM and inactive = higher.
Metric: GI50

# Compound, Metric, Observed
records = [
    ("CCC12CC(c3ccccc3)C(C(=O)N1)C(=O)N2 (stereo not drawn)", "GI50", "> 100 µM (inactive)"),
    ("Clc1c2ncccc2cc2nn[nH]c12", "GI50", "> 100 µM (inactive)"),
    ("CCN1C/C(=C\\c2ccc(Cl)cc2)C2=NN(c3ccccc3)C(c3ccc(Cl)cc3)C2C1 (stereo not drawn)", "GI50", "> 100 µM (inactive)"),
    ("COc1ccc(Cc2cc(Cc3ccc(OC)cc3)cc(Cc3ccc(OC)cc3)c2)cc1", "GI50", "> 100 µM (inactive)"),
    ("CC1(C)Cc2nc3c(cc2C(=O)C1/C=N/C(C#N)=C(\\N)C#N)C(=O)C(/C=N/C(C#N)=C(\\N)C#N)C(C)(C)C3 (stereo not drawn)", "GI50", "2.33 µM (inactive)"),
    ("Cc1c(Cl)ccc2c1NC(=O)C2(O)CC(=O)c1ccc2ccccc2c1 (stereo not drawn)", "GI50", "> 100 µM (inactive)"),
    ("Cc1cc(C#N)c(Nc2ccc(F)cc2[N+](=O)[O-])s1", "GI50", "30.3 µM (inactive)"),
    ("COC1O[C@H]2[C@H]3[C@@H]1[C@@H](OS(=O)(=O)c1ccc(C)cc1)C(=O)N3C[C@H]2O (stereo partly drawn)", "GI50", "> 100 µM (inactive)"),
]

###

Reported GI50 values for the following compounds.
system: SNB-75; experiment: NCI tumour cell line growth inhibition, 48 h
The source made the active and inactive calls. Cut-off read from the data, not from the text of the source: active = GI50 up to about 1.1 µM and inactive = higher.

# Compound, GI50
data = [
    ("COc1ccc(Cc2cc(Cc3ccc(OC)cc3)cc(Cc3ccc(OC)cc3)c2)cc1", "> 100 µM (inactive)"),
    ("NC(=O)c1ncn(Cc2ccccc2)c1CNC(N)=S", "91.4 µM (inactive)"),
    ("C/C(=N\\NC(=O)C[N+](C)(C)C)c1sc(-c2cccnc2)nc1C", "> 100 µM (inactive)"),
    ("CC1=CC(=O)N(c2c(C)cccc2Cl)C(C)N1 (centres undefined)", "> 100 µM (inactive)"),
    ("COc1ccccc1NC(=O)CC(=O)N/N=C/c1ccc(N(CCC#N)S(=O)(=O)c2ccccc2)cc1", "> 100 µM (inactive)"),
    ("CCCCCCCCCCCCCCCCCC(=O)OCC(COC1OC(COP(=O)(O)O)C(O)C(O)C1O)OC(=O)CCCCCCCCCCCCCCCCC (centres undefined)", "4.63 µM (inactive)"),
    ("O=C(CC(=O)N1N=C(c2ccccc2)C(/N=N/c2ccccc2Cl)C1=O)Nc1ccccc1Cl (centres undefined)", "21.1 µM (inactive)"),
    ("CCCCCCCCCCCCC/C=C/[C@@H](O)[C@H](COC1OC(CO)C(OC2OC(CO)C(O)C(OC3(C(=O)O)CC(O)C(NC(C)=O)C(C(O)C(O)CO)O3)C2O)C(O)C1O)N=[N+]=[N-] (some centres undefined)", "15.9 µM (inactive)"),
    ("COc1cccc(-c2cc(O)c3cc(Cl)cnc3n2)c1", "33.5 µM (inactive)"),
]

###

tested on: KM12; test: NCI tumour cell line growth inhibition, 48 h
Activity calls are given as the source filed them. Cut-off read from the data, not from the text of the source: active = GI50 up to about 1.1 µM and inactive = higher.
Labels: label 1 for active, label 0 for inactive

# Molecule, Cat
rows = [
    ("Cn1cc2ccccc2c1-c1nc(F)nc(Nc2ccc(N)cc2)n1", "label 0"),
    ("N=C(N)N/N=C/c1c(-c2ccc(Cl)cc2)nc2n1CCS2", "label 0"),
    ("c1ccc(COC2C3COC(O3)C(OCc3ccccc3)C2OCc2ccccc2)cc1 (stereo not given)", "label 0"),
    ("CN1CCN(C(=S)N(C(=O)c2ccco2)C2CCCCC2)CC1", "label 0"),
    ("CCOC(=O)C1CCCc2sc(N)c(C#N)c21 (stereo not given)", "label 0"),
    ("C=C1CC[C@@H]2[C@](C)(COC(=O)CCC(=O)O)CCC[C@@]2(C)[C@@H]1CCC1=CC(=O)OC1", "label 0"),
    ("Cn1c2ccccc2c2cc(-c3ccccc3)c3c(c21)C(=O)c1ccccc1C3=O", "label 0"),
    ("Fc1cccc(Cl)c1C1SCc2nc3ccccc3n21 (stereo not given)", "label 0"),
    ("CC(=O)Oc1c(C)c2c(c3ccccc13)OC(C)(C)C2", "label 0"),
    ("COc1ccc2c(C)cc(N/N=C/c3ccc(OC)c4ccccc34)nc2c1", "label 0"),
    ("CNc1ccc(C(=O)CC(O)CCC(C)C2OC(=O)CC(O)CC(=O)CC(O)CC(O)CC(O)CC(O)CC3(O)CC(O)C(C(=O)NCCN4CCOCC4)C(CC(OC4OC(C)C(O)C(N)C4O)\\C=C/C=C\\C=C/C=C/C=C/C=C\\C=C/C2C)O3)cc1 (stereo not given)", "label 0"),
    ("O=C1OC(CC(=O)c2ccc(F)cc2)C(Cl)=C1Cl (stereo not given)", "label 0"),
    ("Nc1ncnc2c(C3OC(CO)C(O)C3O)n[nH]c12 (stereo not given)", "label 1"),
    ("Cc1cc(Br)cc(C)c1NC(=O)C(=O)C1C(=O)C(CC2C(=O)c3ccccc3C2=O)C(=O)CC1(C)C (stereo not given)", "label 0"),
    ("O=C(O)CCc1nc2c(n1Cc1ccccc1)C(=O)c1ccccc1C2=O", "label 0"),
    ("CN(C)c1nc(NN)c2c(-c3ccccc3)c(-c3ccccc3)oc2n1", "label 0"),
    ("COc1ccc(/C=N/NC(=O)c2sc(=S)n(-c3ccccc3)c2N)cc1", "label 0"),
    ("CNc1ccc([N+](=O)[O-])cc1C(=O)N1CCC[C@H]1CO", "label 0"),
    ("Cc1cn(C2CC(O)C(Cn3nncc3Cn3cnc4c(N)ncnc43)O2)c(=O)[nH]c1=O (stereo not given)", "label 0"),
    ("COC1O[C@H]2[C@H]3[C@@H]1[C@@H](OS(=O)(=O)c1ccc(C)cc1)C(=O)N3C[C@H]2O (stereo not given in full)", "label 0"),
    ("CCCCN(CCCC)C(=O)C(=O)C(C(=O)c1ccc(OC)cc1)c1ccc(OC)cc1 (stereo not given)", "label 0"),
    ("O=c1/c(=C/c2ccc(-c3ccc(Cl)cc3Cl)o2)sc2n1[C@@H](c1ccc3c(c1)OCO3)C=C(c1cc(F)c(Cl)cc1Cl)N=2", "label 0"),
    ("CCNc1nc2c(=O)n(C)c(=O)n(C)c2s1", "label 0"),
    ("[N-]=[N+]=NI1OC(C(F)(F)F)(C(F)(F)F)c2ccccc21", "label 0"),
    ("COc1ccc(-c2cc(O)c3cccnc3n2)cc1", "label 0"),
    ("O=C(N/N=C\\c1ccc([N+](=O)[O-])cc1)Nc1ccccc1", "label 0"),
    ("N#Cc1sc2c(c1O)c(=O)n(-c1ccccc1)c(=S)n2-c1ccccc1", "label 0"),
    ("COc1cc(CNC(=O)CCCCCCCC/C=C/Br)ccc1O", "label 0"),
    ("COC(=O)Nc1nc(=O)c2cc(OC)c(OC)cc2[nH]1", "label 0"),
    ("C=CCn1c(-c2ccccc2)cs/c1=N\\C(P(=O)(O)O)P(=O)(O)O", "label 0"),
    ("Cc1ccc2nnc(NS(=O)(=O)c3cc(C)c(Cl)cc3S)n2n1", "label 0"),
    ("CCOc1cc2c(c(OCC)c1O)CC[C@@H]1[C@@H]2CC[C@]2(C)[C@@H](O)CC[C@@H]12", "label 0"),
    ("Cc1cc2ncn(C3CCCO3)c2cc1C (stereo not given)", "label 0"),
    ("Cc1cccc2nc(-c3ccccc3)cc(=O)n12", "label 0"),
    ("COc1ccc(N2C(=O)CC(=O)N(C(=O)COc3ccc(OCC(=O)N4C(=O)CC(=O)N(c5ccc(OC)cc5)C4=S)cc3)C2=S)cc1", "label 0"),
    ("CC(=O)O[C@H]1C=CC23OC(=O)[C@]1(C)[C@H]2[C@H](C(=O)O)C12CC(=O)[C@@](CO)(CC[C@H]13)C2", "label 0"),
    ("C=CC(=O)N1C/C(=C\\c2ccc(Cl)c(Cl)c2)C(=O)/C(=C/c2ccc(Cl)c(Cl)c2)C1", "label 1"),
    ("c1ccc2c(c1)N[C@@H]1c3[nH]c4ccccc4c3CC[C@H]21", "label 0"),
    ("O=C(N[C@@H](Cc1ccccc1)B(O)O)[C@H](Cc1cccc2ccccc12)NC(=O)N1CCOCC1", "label 1"),
    ("COc1cccc(-c2cc(O)c3cc(Cl)cnc3n2)c1", "label 1"),
]
